assay: Cell viability (ATP, Cell-Titer GLO) in Huh7.5 cells; format: cell-based; conditions: human
Below, each of the molecules is paired with its reported CC50 at 48 h value.

Examples with their reported CC50 at 48 h follow.
molecule="COc1cc2c(cc1O)CN(C)C[C@H]2c1ccc(O)cc1 [Cherylline, cherylline]" quantity_name="CC50 at 48 h" result="> 250 µM"
molecule="OC1CC2N3CCC2(c2cc4c(cc2C3)OCO4)C2OC12 (stereo not drawn) [Flexinine, flexinine]" quantity_name="CC50 at 48 h" result="> 250 µM"

Consider the record given below.
Challenge: Given COc1ccc([C@@H]2CN(C)Cc3cc(O)c(OC)cc32)cc1O [Gigantellinine, gigantellinine] , state its recorded CC50 at 48 h.
Response given: > 250 µM

---

Below, each of the compounds is paired with its reported CC50 at 48 h value.
test: Cell viability (ATP, Cell-Titer GLO) in Huh7.5 cells; type: cell-based; details: human, Huh7.5 cells; Huh7.5, ATP, 48 h posttreatment; read-out: CC50

smiles_record=O[C@H]1[C@H]2c3cc4c(cc3CN3CCC(=C[C@@H]1O)[C@H]23)OCO4 result="14.5 µM"

Consider the record given below.
Challenge: Given `O=c1c2cc3c(cc2c2cccc4ccn1c42)OCO3` , state its recorded CC50 at 48 h.
Response given: 176 µM

---

test system: DENVR2A; conditions: CC50/EC50, Huh7.5
Below, each of the compounds is paired with its reported SI DENVR2A (therapeutic selectivity index) value.
// return a plain number; no unit text

smiles_record=O=c1c2cc3c(cc2c2cccc4ccn1c42)OCO3 target_or_system=DENVR2A result=2.38

Consider the record given below.
Challenge: Given `O[C@H]1[C@H]2c3cc4c(cc3CN3CCC(=C[C@@H]1O)[C@H]23)OCO4` , state its recorded SI DENVR2A (therapeutic selectivity index).
Response given: 90.6

---

Below, each of the compounds is paired with its reported SI DENVR2A (therapeutic selectivity index) value.
tested on: DENVR2A; details: CC50/EC50, Huh7.5

compound="COc1ccc([C@@H]2CN(C)Cc3cc(O)c(OC)cc32)cc1O [Gigantellinine, gigantellinine]" result=>2.3
compound="COc1cc2c(cc1O)CN(C)C[C@H]2c1ccc(O)cc1 [Cherylline, cherylline]" result=>28

Consider the record given below.
Challenge: Checklist item: SI DENVR2A (therapeutic selectivity index) tested on DENVR2A, entry OC1CC2N3CCC2(c2cc4c(cc2C3)OCO4)C2OC12 (stereo not drawn) [Flexinine, flexinine] , value?
Response given: >3.9
